- Run description: BSK_3C_VCAM1: BioMAP Diversity Plus: 3C Assay for Vascular cell adhesion molecule 1 (VCAM1) Biomarker Activity (AID 2282999)
- Assay context: BioMAP 3C HUVEC, VCAM1 ELISA, cytokine-stimulated; actives raise or lower the signal
The source made the active and inactive calls. How the source made its calls: active means hit-call score of the fitted dose curve at least 0.9, where 1 is the maximum; inactive means score below 0.9.
Assay metric: outcome

Example compounds with recorded outcome:
Structure smiles string	outcome
Nc1cccc2ccccc12	inactive
CCOP(=S)(OCC)SCCS(=O)(=O)CC	inactive
C=CC(=O)OCCCCCC(C)C	inactive
O=[N+]([O-])c1ccc2c3c(cccc13)CC2	inactive

Attention now turns to another entry.
# input Could you share which outcome value was measured for O=C(O)CCC(F)(C(F)(F)F)C(F)(F)F ?
# output inactive

###

- Run description: BSK_CASM3C_SRB: Viability Assessment in the BioMAP Diversity Plus: CASM3C Assay (AID 2283050);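 further: total protein by SRB staining as cytotoxicity measure in parallel cultures; cells exposed to compound for 24 h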
- Assay context: primary human coronary artery smooth muscle cells
Active and inactive are the calls of the source. Rule for the calls: active = hit-call score of the fitted dose curve at least 0.9, where 1 is the maximum; inactive = score below 0.9.
Give your call using only these classes: label 1 for active, label 0 for inactive

Please review the following examples before continuing.
Compound	Label value
COP(=S)(OC)Oc1c(Cl)cc(C)cc1Cl	label 0
CC(=O)C(Cl)C(=O)N(C)C (stereo unspecified)	label 0
COc1cc(OC)nc(NC(=O)NS(=O)(=O)c2ncccc2C(=O)N(C)C)n1	label 0
Oc1cccc2cccnc12	label 0
O=C1C2(Cl)C3(Cl)C4(Cl)C(Cl)(Cl)C5(Cl)C3(Cl)C1(Cl)C5(Cl)C24Cl (stereo unspecified)	label 1
O=[N+]([O-])c1ccc(O)c([N+](=O)[O-])c1	label 0

Lab note: next compound to report on.
# input Call for entry Nc1ccc(-c2ccc(N)c(Cl)c2)cc1Cl :
# output label 0

###

- Target under test: Hypoxia-inducible factor 1-alpha (Homo sapiens)
- Run description: ATG_HIF1a_CIS: Attagene CIS-FACTORIAL HepG2 Assay for human Hypoxia Inducible Factor 1 (HIF1A) (AID 2282951)
- Assay context: HepG2 Attagene cis-factorial HIF1a reporter transcription; actives raise or lower the signal
Active and inactive are the calls of the source. How the source made its calls: active means hit-call score of the fitted dose curve at least 0.9, where 1 is the maximum; inactive means score below 0.9.
Bench note: report the call from active, inactive

Before answering, review these 5 worked examples.
Compound	Label value
C=C(C)C(=O)[O][Sn]([CH2]CCC)([CH2]CCC)[CH2]CCC	inactive
CC(C)C1CCC(Cc2ccc(Cl)cc2)C1(O)Cn1cncn1 (stereo unspecified)	inactive
CC(C#N)CCC#N (stereo unspecified)	inactive
CC(=O)C=C(C)C	inactive
O=C(O)C(Cl)(Cl)Cl	inactive

# input In this assay, the call recorded for CNC was what?
# output inactive

###

- Target under test: Peroxisome proliferator-activated receptor gamma (Homo sapiens) (UniProt P37231)
- Sequence (P37231 whole entry, looked up): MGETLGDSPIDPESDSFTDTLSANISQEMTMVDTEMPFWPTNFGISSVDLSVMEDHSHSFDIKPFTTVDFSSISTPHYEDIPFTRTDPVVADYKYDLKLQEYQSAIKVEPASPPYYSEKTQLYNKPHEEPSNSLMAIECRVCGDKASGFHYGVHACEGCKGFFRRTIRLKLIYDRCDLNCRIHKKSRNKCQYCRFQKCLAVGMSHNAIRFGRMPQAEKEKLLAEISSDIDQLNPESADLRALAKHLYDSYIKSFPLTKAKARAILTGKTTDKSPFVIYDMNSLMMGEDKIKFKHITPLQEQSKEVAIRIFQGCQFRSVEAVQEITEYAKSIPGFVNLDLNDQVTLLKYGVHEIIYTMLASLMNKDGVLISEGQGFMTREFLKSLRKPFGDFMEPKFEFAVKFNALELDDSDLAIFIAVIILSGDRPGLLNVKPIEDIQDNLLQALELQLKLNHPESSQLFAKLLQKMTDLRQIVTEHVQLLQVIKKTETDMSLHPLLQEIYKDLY
- Run description: ATG_PPARg_TRANS: Attagene TRANS-FACTORIAL HepG2 Assay for human Peroxisome Proliferator-activated Receptor-gamma (PPARg) (AID 2283007)
Inconclusive results are not listed. Active and inactive are the calls of the source. How the source made its calls: active means hit-call score of the fitted dose curve at least 0.9, where 1 is the maximum; inconclusive means response in the unintended direction; inactive means score below 0.9.
Reply using exactly one outcome from label 1 (active), label 0 (inactive)

Compound	Target under test	Label value
Cc1ccc(N)cc1Cl	Peroxisome proliferator-activated receptor gamma (Homo sapiens) (UniProt P37231)	label 0
CC(C)C1CCC(Cc2ccc(Cl)cc2)C1(O)Cn1cncn1 (stereo not given)	Peroxisome proliferator-activated receptor gamma (Homo sapiens) (UniProt P37231)	label 0
OCC(O)CCl (stereo not given)	Peroxisome proliferator-activated receptor gamma (Homo sapiens) (UniProt P37231)	label 0
Cl/C=C\C[N+]12CN3CN(CN(C3)C1)C2	Peroxisome proliferator-activated receptor gamma (Homo sapiens) (UniProt P37231)	label 0
Nc1ccc(Cl)cc1C(=O)c1ccccc1	Peroxisome proliferator-activated receptor gamma (Homo sapiens) (UniProt P37231)	label 1
CCN(CC)C(=O)Cl	Peroxisome proliferator-activated receptor gamma (Homo sapiens) (UniProt P37231)	label 0
Clc1nc(Cl)nc(Cl)n1	Peroxisome proliferator-activated receptor gamma (Homo sapiens) (UniProt P37231)	label 0
CCCCCCCCc1ccc(O)cc1	Peroxisome proliferator-activated receptor gamma (Homo sapiens) (UniProt P37231)	label 1
CCCCCCCCSC(=O)Oc1cc(Cl)nnc1-c1ccccc1	Peroxisome proliferator-activated receptor gamma (Homo sapiens) (UniProt P37231)	label 1

# input Please share the test call associated with CCOP(=S)(OCC)Oc1ccc(S(C)=O)cc1 (stereo not given) .
# output label 0
